Data provenance is PubChem BioAssay AID1942.

Target under test: Potassium voltage-gated channel subfamily KQT member 2 (Rattus norvegicus) (UniProt O88943)
Sequence (O88943 whole entry, looked up): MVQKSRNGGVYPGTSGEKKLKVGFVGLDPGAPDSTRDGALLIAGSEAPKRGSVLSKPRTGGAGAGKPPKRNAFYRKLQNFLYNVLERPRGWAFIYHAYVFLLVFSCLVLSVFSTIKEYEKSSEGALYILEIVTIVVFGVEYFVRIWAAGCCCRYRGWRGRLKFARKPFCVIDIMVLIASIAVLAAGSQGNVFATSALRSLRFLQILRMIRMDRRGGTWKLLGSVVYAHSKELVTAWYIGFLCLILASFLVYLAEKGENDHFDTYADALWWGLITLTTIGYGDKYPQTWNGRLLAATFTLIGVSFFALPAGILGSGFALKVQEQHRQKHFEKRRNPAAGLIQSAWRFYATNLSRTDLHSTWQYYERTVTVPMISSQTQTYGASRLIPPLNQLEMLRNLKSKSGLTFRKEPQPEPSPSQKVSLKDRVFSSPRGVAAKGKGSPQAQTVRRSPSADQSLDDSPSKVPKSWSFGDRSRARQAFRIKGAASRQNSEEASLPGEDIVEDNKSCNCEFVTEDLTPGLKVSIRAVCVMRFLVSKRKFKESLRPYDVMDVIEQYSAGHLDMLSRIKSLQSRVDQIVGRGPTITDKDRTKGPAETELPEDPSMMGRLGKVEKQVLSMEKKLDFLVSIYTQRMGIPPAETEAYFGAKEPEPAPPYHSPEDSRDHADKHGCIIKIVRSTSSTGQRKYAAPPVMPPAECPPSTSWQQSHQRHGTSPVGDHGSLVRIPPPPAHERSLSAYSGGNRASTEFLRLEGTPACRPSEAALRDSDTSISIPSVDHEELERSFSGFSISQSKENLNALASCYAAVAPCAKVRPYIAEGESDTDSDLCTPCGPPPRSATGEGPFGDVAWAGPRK
Method notes: KCNQ2 potentiation in CHO cells – cell-based, FluxOR thallium flux, counter-screen for hERG block protector project, confirmation (AID 1942);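 also: normalized value minus buffer-control mean plus three SD of buffer wells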
Condition description: FluxOR thallium flux fluorescence, at 10 µM, hits give high values
Hit rate of the full screen: of about 2,400 compounds, about 580 (24%) were called active. Only a sample is shown.
Measured activity change, less the hit threshold accompanies every entry in the list below.
Readout name: activity change, less the hit threshold (%)

INSERT INTO measurements (molecule, readout_name, units_symbol, reported_result) VALUES
  ('C/C(=N\Nc1nc2ccccc2nc1C)c1ccccc1O', 'activity change, less the hit threshold', '%', 7.3),
  ('Cn1c(=O)c2c(ncn2CC(=O)OCc2ccccc2)n(C)c1=O', 'activity change, less the hit threshold', '%', -14.2),
  ('O=C(NC(=S)Nc1ccc(C(F)(F)F)cc1)c1csnn1', 'activity change, less the hit threshold', '%', 87),
  ('COc1ccc(-n2ncc3c2CC(C)(C)CC3NC(=O)c2cn[nH]c2)cc1 (configuration not stated)', 'activity change, less the hit threshold', '%', -22.9),
  ('C=CCn1c(=S)[nH]c2ccc(Br)cc2c1=O', 'activity change, less the hit threshold', '%', 12.4),
  ('C/C(=N\NC(=O)c1cc2ccccc2cc1O)c1ccc(C)o1', 'activity change, less the hit threshold', '%', 30.2),
  ('O=C(NC(=S)Nc1cc(C(F)(F)F)ccc1Cl)c1ccccc1', 'activity change, less the hit threshold', '%', -6.4),
  ('CCCCCCCCCCn1c2c(c(=N)c3c1CCC3)CCC2', 'activity change, less the hit threshold', '%', 26.3),
  ('CCCN1C(=O)/C(=C/c2ccc(C)s2)NC1=S', 'activity change, less the hit threshold', '%', 80.4),
  ('COc1ccc(C(=O)CC(=O)C(=O)Nc2ccc(C)c(Cl)c2)cc1', 'activity change, less the hit threshold', '%', -9),
  ('O=C(N/N=C/c1ccc(-c2ccccc2)o1)c1ccccc1O', 'activity change, less the hit threshold', '%', -5.7),
  ('CCOc1ccc(CCNC(=O)Nc2ccccc2C)cc1OCC', 'activity change, less the hit threshold', '%', -14.3),
  ('O=C1c2ccccc2C(=O)N1c1cccnc1', 'activity change, less the hit threshold', '%', -14.6),
  ('COc1cccc(C(=O)CC(=O)C(=O)Nc2ccc(C)cc2Cl)c1', 'activity change, less the hit threshold', '%', 10.8),
  ('C=CCNC(=S)N/N=C(\C)c1ccc(OC)cc1', 'activity change, less the hit threshold', '%', -13.1),
  ('CN(C)Cc1c(C(=O)N/N=C/c2ccccc2OCc2c(F)cccc2Cl)nnn1-c1nonc1N', 'activity change, less the hit threshold', '%', -28.3),
  ('COc1ccc(/C=C2\SC(=N)N(c3nccs3)C2=O)cc1OC', 'activity change, less the hit threshold', '%', -16.2),
  ('CCCN1C(=O)/C(=C/c2ccc3c(c2)OCO3)NC1=S', 'activity change, less the hit threshold', '%', -10.1),
  ('Nc1ncnc(NC2CCS(=O)(=O)C2)c1[N+](=O)[O-] (configuration not stated)', 'activity change, less the hit threshold', '%', -11.2),
  ('Cn1cc(CCC(=O)N2CCCC(Nc3ccc(F)cc3)C2)cn1 (configuration not stated)', 'activity change, less the hit threshold', '%', -23.8),
  ('COc1ccc(N2C(=O)/C(=C/c3cccs3)NC2=S)cc1', 'activity change, less the hit threshold', '%', -15.1),
  ('CCOc1ccccc1NC(=O)C(=O)CC(=O)c1cccc(OC)c1', 'activity change, less the hit threshold', '%', -8.6),
  ('COC(=O)c1cc(S(=O)(=O)NCC2CCN(Cc3cc(C)ccc3C)CC2)c[nH]1', 'activity change, less the hit threshold', '%', -11.5),
  ('O=C(NC(=S)Nc1cccc(C(F)(F)F)c1)c1csnn1', 'activity change, less the hit threshold', '%', 115),
  ('CCC(C)c1ccccc1NC(=S)NC(=O)c1ccco1 (configuration not stated)', 'activity change, less the hit threshold', '%', 60.2),
  ('CC(C)N(Cc1ccccc1)C(=S)NC(=O)C1(C)CC1(Cl)Cl (configuration not stated)', 'activity change, less the hit threshold', '%', 32.4),
  ('CCCOc1ccc(C(=O)NNC(=S)NC(=O)c2ccccc2)cc1', 'activity change, less the hit threshold', '%', -24.3),
  ('Cc1ccc(CNC(=O)CN(C(=O)C2(C)CC(=O)N=C3C=CC=CN32)c2ccccc2F)cc1 (configuration not stated)', 'activity change, less the hit threshold', '%', -10.9),
  ('COc1cc(OC)cc(C(=O)O/N=C(\N)c2cccc(C)c2)c1', 'activity change, less the hit threshold', '%', -9.7),
  ('O=C(O)c1cc(/C=N\O)ccc1OCc1ccccc1', 'activity change, less the hit threshold', '%', -16.1),
  ('COc1ccc(C(CC(=O)N2CCOCC2)c2c(O)cc(OC)cc2OC)cc1 (configuration not stated)', 'activity change, less the hit threshold', '%', -14.7),
  ('O=C(OCc1ccccc1)C1=NNC2C(=O)N(c3ccc(Br)cc3)C(=O)C12 (configuration not stated)', 'activity change, less the hit threshold', '%', -11.1),
  ('O=S(=O)(c1ccc(F)c(F)c1)N1CCN(c2ncccn2)CC1', 'activity change, less the hit threshold', '%', -26),
  ('Cc1cc(C(F)(F)F)n(-c2ccc(N)cc2)n1', 'activity change, less the hit threshold', '%', -13.2),
  ('CCC(C)c1ccccc1NC(=O)c1[nH]c(C)c(C(C)=O)c1C (configuration not stated)', 'activity change, less the hit threshold', '%', -22.3),
  ('CC(=O)c1c(C)c2c(n1CCN(C)C)CCCC2', 'activity change, less the hit threshold', '%', -11.1),
  ('O=C(COc1ccccc1)Nc1ccc(S(=O)(=O)Nc2ccccn2)cc1', 'activity change, less the hit threshold', '%', -14.4),
  ('COc1ccc(C(=O)CNc2ccccc2C#N)cc1', 'activity change, less the hit threshold', '%', -15),
  ('CC(C)CN1C(=O)/C(=C/c2cccs2)NC1=S', 'activity change, less the hit threshold', '%', 83.6),
  ('Cc1ccc(CNS(=O)(=O)c2cc3c4c(c2)CCN4C(=O)CC3)cc1', 'activity change, less the hit threshold', '%', -11.7),
  ('COc1ccc(C(=O)CC(=O)C(=O)Nc2ccc(C)c(C)c2)cc1', 'activity change, less the hit threshold', '%', -11.4),
  ('CCN1C(=O)/C(=C/c2ccc(C)s2)NC1=S', 'activity change, less the hit threshold', '%', 36.1),
  ('C=CCN(CC=C)C(=S)NC(=O)c1ccc(OC)cc1', 'activity change, less the hit threshold', '%', 10.1),
  ('CCCCNC(=S)N/N=C/C1=CCC2CC1C2(C)C (configuration not stated)', 'activity change, less the hit threshold', '%', -17.2),
  ('Cn1c(=O)c(Sc2ccccc2)c(O)c2ccccc21', 'activity change, less the hit threshold', '%', -8.1),
  ('Cc1cc(OCC(=O)Nc2cc(S(=O)(=O)N3CCOCC3)ccc2N2CCCC2)ccc1C(C)C', 'activity change, less the hit threshold', '%', -14.1),
  ('CCCOc1ccc(CN(CCC#N)C(=S)NC(=O)c2ccccc2)cc1', 'activity change, less the hit threshold', '%', 7.3);
